Test Target: EBP-Ig (N-terminal 225 amino acids of the human EPO receptor joined to an Ig heavy chain) (Homo sapiens)
Construct: Ig heavy chain (fusion partner); made in house; host or cells: NSO cells (secreted into conditioned media)
Assay Remarks: Inhibition of [125I]EPO binding to immobilized EBP-Ig (EPO binding protein-Ig), scintillation Flash plate competition assay
Condition Details: 50 μM compound; Table 12
Exam item: assign 1 to entries whose EPO/EBP-Ig % inh @ 50 μM is below 10% and 0 to entries at or above 10%. Note that a value of exactly 10% receives 0.

Sample answers from the record:
[
  {
    "Compound": "CC(C)(C)OC(=O)CC(C(=O)NCCCOCCOCCOCCCNC(=O)C(CC(=O)OC(C)(C)C)N(C/C=C/c1cccc(Oc2ccc(C(C)(C)C)cc2)c1)C/C=C/c1cccc(Oc2ccc(C(C)(C)C)cc2)c1)N(C/C=C/c1cccc(Oc2ccc(C(C)(C)C)cc2)c1)C/C=C/c1cccc(Oc2ccc(C(C)(C)C)cc2)c1 (centres unmarked)",
    "Discrete Label": 1
  },
  {
    "Compound": "CC(C)(C)OC(=O)CC(C(=O)NCCCCCCCCCCNC(=O)C(CC(=O)OC(C)(C)C)N(C/C=C/c1cccc(Oc2ccc(C(C)(C)C)cc2)c1)C/C=C/c1cccc(Oc2ccc(C(C)(C)C)cc2)c1)N(C/C=C/c1cccc(Oc2ccc(C(C)(C)C)cc2)c1)C/C=C/c1cccc(Oc2ccc(C(C)(C)C)cc2)c1 (centres unmarked)",
    "Discrete Label": 1
  },
  {
    "Compound": "CC(C)(C)OC(=O)CC(C(=O)NCCCOCCCCOCCCNC(=O)C(CC(=O)OC(C)(C)C)N(C/C=C/c1cccc(Oc2ccc(C(C)(C)C)cc2)c1)C/C=C/c1cccc(Oc2ccc(C(C)(C)C)cc2)c1)N(C/C=C/c1cccc(Oc2ccc(C(C)(C)C)cc2)c1)C/C=C/c1cccc(Oc2ccc(C(C)(C)C)cc2)c1 (centres unmarked)",
    "Discrete Label": 1
  }
]

Quick check: does O=C(O)CCC(C(=O)NCCOCCOCCNC(=O)C(CCC(=O)O)N(CC=Cc1ccccc1)CC=Cc1ccccc1)N(CC=Cc1ccccc1)CC=Cc1ccccc1 (centres unmarked) have EPO/EBP-Ig % inh @ 50 μM under 10%? 0

###

The compounds listed here are annotated with their inhibition at 50 µM.
Test Target: EBP-Ig (N-terminal 225 amino acids of the human EPO receptor joined to an Ig heavy chain) (Homo sapiens, UniProt P19235)
Construct: Ig heavy chain (fusion partner); made in house; host or cells: NSO cells (secreted into conditioned media)
Sequence (P19235 25-250 limits assumed): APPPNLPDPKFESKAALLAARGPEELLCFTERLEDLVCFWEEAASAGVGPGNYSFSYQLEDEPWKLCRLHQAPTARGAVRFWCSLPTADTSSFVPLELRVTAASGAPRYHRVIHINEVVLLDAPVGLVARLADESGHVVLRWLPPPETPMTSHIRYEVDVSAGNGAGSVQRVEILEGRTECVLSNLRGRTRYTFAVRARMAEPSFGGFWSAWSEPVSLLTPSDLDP
Assay Remarks: Inhibition of [125I]EPO binding to immobilized EBP-Ig (EPO binding protein-Ig), scintillation Flash plate competition assay
Condition Details: read-out: % inh @ 50 μM (Inhibition of EPO binding to EBP-Ig)
Kindly answer with a numeric value in %, unit omitted.

Use these answered entries as a reference point.
[
  {
    "Compound": "O=C(O)CN(C/C=C/c1cccc(Oc2ccccc2)c1)C/C=C/c1cccc(Oc2ccccc2)c1",
    "inhibition at 50 µM [%]": 45
  },
  {
    "Compound": "COC(=O)C(CCCCN)N(Cc1ccc(OCc2ccccc2)cc1)Cc1cccc([N+](=O)[O-])c1 (stereo not drawn)",
    "inhibition at 50 µM [%]": 37
  },
  {
    "Compound": "Cc1ccc(S(=O)(=O)Nc2cccc(CN(Cc3cccc(Oc4ccccc4)c3)C(CCC(=O)O)C(=O)NCCOCCOCCNC(=O)C(CCC(=O)O)N(Cc3cccc(NS(=O)(=O)c4ccc(C)cc4)c3)Cc3cccc(Oc4ccccc4)c3)c2)cc1 (stereo not drawn)",
    "inhibition at 50 µM [%]": 78
  }
]

Give reported inhibition at 50 µM value for O=C(O)CC(C(=O)O)N(C/C=C/c1cccc(Oc2ccccc2)c1)Cc1cccc(Oc2ccccc2)c1 (stereo not drawn) 52

Tell me its inhibition at 50 µM given COC(=O)C(CCCCN)N(Cc1ccc(OCc2ccccc2)cc1)Cc1cccc(NC(=O)c2ccc(C)cc2)c1 (stereo not drawn) as the entry. 36
